Reference source: ChEMBL document CHEMBL1201862

Measured GI50, listed per entry.
System: T47D
Test: NCI tumour cell line growth inhibition, 48 h
The source made the active and inactive calls. No stated cut-off is given here; in the data, active = GI50 up to about 1.1 µM and inactive = higher.
reported-endpoint: GI50

- C=C(C)[C@H]1CC[C@@]23O[C@@H]2[C@@H](C[C@@]2(C)CC(=O)[C@H](CC(=O)C1)O2)OC(=O)[C@@]12CC[C@H](C(=C)C)CC(=O)C[C@H]4O[C@](C)(CC4=O)C[C@@H](OC3=O)[C@@H]1O2: > 100 µM (inactive)
- CC1=C(C(=O)OCCc2ccc([N+](=O)[O-])cc2)C(c2ccccc2[N+](=O)[O-])C(C(=O)OC(C)C)=C(C)N1 (centres undefined): 3.9 µM (inactive)
- CCOC(=O)C1=C(C)NC(C)=C(C(=O)OCCNC(=O)c2ccc(N=[N+]=[N-])cc2)C1c1ccccc1C(F)(F)F (centres undefined): 8.93 µM (inactive)
- C=CCCCN(C(=O)c1ccccc1)c1ccc(C(=O)OC)o1: 34 µM (inactive)

###

Listed here: items and their measured GI50.
System: TK-10
Test: NCI tumour cell line growth inhibition, 48 h
The source made the active and inactive calls. Rule as the data show it: active = GI50 up to about 1.1 µM and inactive = higher.
reported-endpoint: GI50

- Cc1cc2nc(-c3cc(C(C)(C)C)c(O)c(C(C)(C)C)c3)[nH]c2cc1C: > 22.3 µM (inactive)
- C/C(=N\NC(=N)N)C(CN(CC(C)C)CC(C)C)C(=O)Nc1ccc(C)cc1C (configuration not stated): > 100 µM (inactive)
- Cc1ccc(NC(=O)S(N)(c2ccc(C)cc2)[N+](=O)[O-])cc1 (configuration not stated): > 100 µM (inactive)
- O=C(NNC(=O)c1ccncc1)C(=O)Nc1cc(Cl)c(Cl)cc1Cl: > 100 µM (inactive)
- COC(=O)NC(=O)c1cn(C2OC(CO)C(O)C2O)c(=O)[nH]c1=O (configuration not stated): > 100 µM (inactive)
- O=C(CCCCCC(=O)N1CC(CCl)c2ccc([N+](=O)[O-])cc21)N1CC(CCl)c2ccc([N+](=O)[O-])cc21 (configuration not stated): > 100 µM (inactive)
- c1ccc(C2N=NN(c3ccccc3)C2N2CCCCC2)cc1 (configuration not stated): > 100 µM (inactive)
- O=C1NC(Nc2ccccc2)=N/C1=C\c1c(Cl)cccc1Cl: 18.9 µM (inactive)
- O=C1CC(c2ccc[nH]2)=NN1c1ccccc1: > 100 µM (inactive)
- COc1c(C)c(C/C=C(\C)CCCCO)c(OC)c2ccccc12: 63.8 µM (inactive)
- O=C1CSC(c2ccccc2[N+](=O)[O-])N1c1ccc(-n2c(-c3ccccc3)nc3ccccc3c2=O)cc1 (configuration not stated): 29.6 µM (inactive)
- Cc1oc2c(c1C)S(=O)(=O)C(C#N)=CN2: > 100 µM (inactive)
- CC#CC(O)(C(=O)OC1CCCN(C)C1)C1=CC=CCC1 (configuration not stated): > 100 µM (inactive)
- COC(=O)C1CCC(=O)N1C(c1ccccc1)c1ccc(OC)c(OC)c1 (configuration not stated): > 100 µM (inactive)
- Oc1c(C(O)(c2ccccc2)c2ccc3ccccc3c2O)ccc2ccccc12: 13 µM (inactive)
- COC(=O)c1cccc(OC)c1C#Cc1c(OC)cccc1OC: > 100 µM (inactive)
- Cc1ccc(N(C(=O)Nc2ccc(F)c(Cl)c2)C2=NCC(C)S2)cc1 (configuration not stated): 29.7 µM (inactive)
- CSc1ccc(/C=C2/C[N+](C)(C)C/C(=C/c3ccc(SC)cc3)C2=O)cc1: 50.7 µM (inactive)
- CNC(=O)C(C)C1C(=O)/C(=C(O)/C=C\C(C)=C\C(C)C2OC3(C)OC(C=CC34CO4)C2C)C(=O)N1C1CCC(O)C(C)O1 (configuration not stated): > 100 µM (inactive)
- CCn1ncc(N=O)c1N: > 100 µM (inactive)
- NC(=O)CC1(O)C=CC(=O)C=C1: > 100 µM (inactive)
- Cn1c2n/c(=N\c3ccc(Cl)cc3)[n+]3ccc4ccccc4c3c-2c([O-])n1-c1ccccc1: > 100 µM (inactive)
